biological target: AAV5 (adeno-associated virus serotype 5); assay: SPR, AAV on CM5 chip
endpointLabel: kon (M⁻¹ s⁻¹)
Numeric answer only, unit M⁻¹ s⁻¹ assumed.

Reported kon ( A4-C7 (bispecific antibody) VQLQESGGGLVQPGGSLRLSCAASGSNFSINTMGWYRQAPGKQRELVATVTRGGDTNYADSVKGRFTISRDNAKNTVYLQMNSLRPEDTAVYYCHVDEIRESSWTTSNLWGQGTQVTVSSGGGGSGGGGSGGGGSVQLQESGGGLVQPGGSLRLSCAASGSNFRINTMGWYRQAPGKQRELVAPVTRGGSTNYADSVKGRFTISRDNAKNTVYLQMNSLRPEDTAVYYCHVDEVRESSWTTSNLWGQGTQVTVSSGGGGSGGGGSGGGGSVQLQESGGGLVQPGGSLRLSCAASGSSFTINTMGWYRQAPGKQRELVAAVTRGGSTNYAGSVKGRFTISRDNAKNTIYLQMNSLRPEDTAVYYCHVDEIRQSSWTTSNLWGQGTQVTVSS ) = 437000
